test system: MDA-MB-468 breast; assay: NCI-60 one-dose screen, 48 h; details: 10 µM unless noted
The panel holds about 83,000 compounds, 20% with a hit somewhere; the sample as a whole holds those more often. Activity calls are given as the source filed them. The calls were made as follows: active = growth percent below 10; inactive = the rest.
Thanks in advance; please answer with one of these: YES (active), NO (inactive)

[Q] Per the records of this test, what outcome belongs to `CC(C)(C)c1cc(C=O)cc(C(C)(C)C)c1O` ?
[A] NO

[Q] Per the records of this test, what outcome belongs to `C#CCn1cc(C=C2C(=O)N(C)C(=O)N(C)C2=O)c2cc(Cl)ccc21` ?
[A] NO

[Q] Per the records of this test, what outcome belongs to `COc1ccc(C2=C(c3cccc(OC)c3)C(=O)c3ccc(C)nc3C2=O)cc1` ?
[A] YES

[Q] Per the records of this test, what outcome belongs to `Cc1cc(NCc2cc(Nc3ccnc4cc(Cl)ccc34)ccc2F)nc(N2CCOCC2)n1` ?
[A] NO

[Q] Per the records of this test, what outcome belongs to `COC(=O)N[C@H]1CCc2cc(OC)c(OC)c(OC)c2-c2ccc(SC)c(=O)cc21` ?
[A] YES

[Q] Per the records of this test, what outcome belongs to `COc1ccc(-c2cncn2-c2ccc(-c3nc4cc(OC)c(OC)c(OC)c4s3)cc2)cc1N` ?
[A] NO

[Q] Per the records of this test, what outcome belongs to `Nc1cc(Cl)c(S(N)(=O)=O)cc1S(N)(=O)=O` ?
[A] NO

[Q] Per the records of this test, what outcome belongs to `COc1ccc([C@H]2c3[nH]c4ccccc4c3C[C@H]3C(=O)N(C4CCN(Cc5c(Cl)cccc5Cl)CC4)CC(=O)N23)c(OC)c1` ?
[A] NO

[Q] Per the records of this test, what outcome belongs to CC1CN(CCCOC(=O)Nc2ccc(Cl)cc2)CCN1C(C)(C)C (stereo not given) ?
[A] NO

[Q] Per the records of this test, what outcome belongs to `CCC(=O)Nc1cc2c(cc1Cl)-c1ccccc1C2` ?
[A] NO

[Q] Per the records of this test, what outcome belongs to `O=C(Cn1cc(CN2CCCCCC2)nn1)Nc1ccc2c(ccn2Cc2ccccc2)c1` ?
[A] NO

[Q] Per the records of this test, what outcome belongs to `NC(=S)N/N=C/c1ccc(OC(=O)COc2ccc(Cl)cc2)cn1` ?
[A] NO

[Q] Per the records of this test, what outcome belongs to `CCOC(Cc1c(N)[nH]c(=S)[nH]c1=O)OCC` ?
[A] NO

[Q] Per the records of this test, what outcome belongs to `C[C@H]1[C@H](C)CC[C@]2(C(=O)N3CCN(C)CC3)CC[C@]3(C)C(=CC[C@@H]4[C@@]5(C)C/C(=C/c6ccco6)C(=O)C(C)(C)[C@@H]5CC[C@]43C)[C@H]12` ?
[A] NO

[Q] Per the records of this test, what outcome belongs to `O=C(Nc1cccc2c1CCCC2)c1cc2ccccc2cc1O` ?
[A] NO

[Q] Per the records of this test, what outcome belongs to `CC/C=C/C/C=C/C/C=C/C/C=C/C/C=C/C/C=C/CCC(=O)Nc1ccn([C@@H]2O[C@H](CO)[C@@H](O)C2(F)F)c(=O)n1` ?
[A] NO

[Q] Per the records of this test, what outcome belongs to OC(COc1ccccc1Cl)CN1CCN(c2cccc(Cl)c2)CC1 (stereo not given) ?
[A] NO

[Q] Per the records of this test, what outcome belongs to `CC(=O)NNC(=S)/N=C\C(C(=O)c1ccccc1)=C(/O)c1ccccc1` ?
[A] NO

[Q] Per the records of this test, what outcome belongs to `O=C(CCCCCCSc1nc(-c2ccc(Cl)cc2)cc(-c2ccc(Cl)cc2)n1)NO` ?
[A] NO

[Q] Per the records of this test, what outcome belongs to `Oc1ccc(-c2nn(-c3ccccc3)cc2-c2nc3ccccc3s2)cc1` ?
[A] NO
